compounds and their reported HEMATOCRIT
Organism: Rattus norvegicus
procedure.text: DrugMatrix - Regimen: Daily Repeat
Type: toxicity, organism-based, Sprague-Dawley
Design: regimen Daily Repeat, gender Male, age 6-8 weeks
measurement.conditions: in vivo, po, 0 mg/kg, 120 h, tissue Blood, route oral GAVAGE, dose level Control, time 5 day, vehicle 100 % WATER
Please respond with the number in % and leave the unit unwritten.

Below are worked cases with known answers.
compound | value.units | endpoint.value
CC(C)C[C@H](NC(=O)[C@@H](O)[C@H](N)Cc1ccccc1)C(=O)O | % | 36.13
CC(C)NCC(O)COc1cccc2ccccc12 (stereo unspecified) | % | 36.72
Nc1ccn([C@@H]2CS[C@H](CO)O2)c(=O)n1 | % | 34.72

Recorded HEMATOCRIT (compound COc1cc2ncnc(Nc3ccc(F)c(Cl)c3)c2cc1OCCCN1CCOCC1 ): 46.82

Recorded HEMATOCRIT (compound Cc1ncc([N+](=O)[O-])n1CCO ): 36.48

Recorded HEMATOCRIT (compound C[N+](C)(C)CCO.[Cl-] [CHOLINE CHLORIDE] ): 35.65

The reported measurements were obtained from ChEMBL document CHEMBL3885881.
